# test_summary: in vitro
# condition_notes: human, normal human lung fibroblast (HLF) cells

molecule: Cc1ccc(-c2nc3c(C(N)=O)scc3[nH]2)cc1 [Compound 16l]
IC50 at 72 h: > 300 µM
//
molecule: C[C@]1(c2nc3c(C(N)=O)cccc3[nH]2)CCCN1 [Veliparib, veliparib, reference compound]
IC50 at 72 h: ~200 µM
//
molecule: COc1ccc(-c2nc3c(C(N)=O)scc3[nH]2)cc1 [Compound 16j]
IC50 at 72 h: > 300 µM

----------
compound: NC(=O)c1scc2[nH]c(-c3ccc(C(=O)N4CCN(Cc5ccc(Br)cc5)CC4)cc3)nc12 [Compound 13g]
melting point: 285 to 288 °C

compound: NC(=O)c1scc2[nH]c(-c3ccc(C(=O)N4CCN(C(=O)c5ccccc5)CC4)cc3)nc12 [Compound 13b]
melting point: 270 to 272 °C

compound: NC(=O)c1scc2[nH]c(-c3ccc(Cl)cc3)nc12 [Compound 16c]
melting point: 245 to 246 °C

compound: COc1cccc(-c2nc3c(C(N)=O)scc3[nH]2)c1 [Compound 16k]
melting point: 230 to 242 °C

compound: NC(=O)c1scc2[nH]c(-c3ccc(C(=O)N4CCN(C(=O)c5ccc(Cl)cc5)CC4)cc3)nc12 [Compound 13d]
melting point: 247 to 249 °C

compound: NC(=O)c1scc2[nH]c(-c3ccc(C(F)(F)F)cc3)nc12 [Compound 16f]
melting point: 283 to 285 °C

compound: NC(=O)c1scc2[nH]c(-c3ccc(C(=O)N4CCN(C(=O)C5CC5)CC4)cc3)nc12 [Compound 13j]
melting point: 272 to 273 °C

compound: Cc1ccc(C(=O)N2CCN(C(=O)c3ccc(-c4nc5c(C(N)=O)scc5[nH]4)cc3)CC2)cc1 [Compound 13e]
melting point: 308 to 310 °C

compound: Cc1cccc(-c2nc3c(C(N)=O)scc3[nH]2)c1 [Compound 16m]
melting point: 254 to 255 °C
